Cited source: ChEMBL document CHEMBL3885881

Species: Rattus norvegicus
test name: DrugMatrix - Regimen: Daily Repeat
Assay type: toxicity, organism-based, Sprague-Dawley
Parameters: regimen Daily Repeat, gender Male, age 6-8 weeks
conditions: in vivo, po, 0 mg/kg, 120 h, tissue Plasma, route oral GAVAGE, dose level Control, time 5 day, vehicle .5 % CMC
Listing: ALBUMIN of selected molecules
// return numeric value only (unit: G/DL, not printed)

INPUT: What ALBUMIN value was documented for this molecule, CO[C@H]1/C=C/O[C@@]2(C)Oc3c(C)c(O)c4c(c3C2=O)C2=NC3(CCN(CC(C)C)CC3)NC2=C(NC(=O)/C(C)=C\C=C\[C@H](C)[C@H](O)[C@@H](C)[C@@H](O)[C@@H](C)[C@H](OC(C)=O)[C@@H]1C)C4=O ?
OUTPUT: 4.22

INPUT: What ALBUMIN value was documented for this molecule, CC(C)[C@H]1CC[C@H](C(=O)N[C@H](Cc2ccccc2)C(=O)O)CC1 [NATEGLINIDE] ?
OUTPUT: 4.28

INPUT: What ALBUMIN value was documented for this molecule, Cc1onc(-c2ccccc2)c1-c1ccc(S(N)(=O)=O)cc1 ?
OUTPUT: 3.72

INPUT: What ALBUMIN value was documented for this molecule, CC[C@@H](CO)NCCN[C@@H](CC)CO ?
OUTPUT: 3.75

INPUT: What ALBUMIN value was documented for this molecule, O=[N+]([O-])c1ccccc1 ?
OUTPUT: 4

INPUT: What ALBUMIN value was documented for this molecule, CN1CCC(=C2c3ccccc3C=Cc3ccccc32)CC1 ?
OUTPUT: 3.55

* * *

Organism: Rattus norvegicus
test name: DrugMatrix - Regimen: Daily Repeat
Assay type: toxicity, organism-based, Sprague-Dawley
Set-up: regimen Daily Repeat, gender Male, age 6-8 weeks
conditions: in vivo, po, 1500 mg/kg, 72 h, tissue Blood, route oral GAVAGE, dose level High, time 3 day, vehicle .5 % CMC
Listing: NEUTROPHIL of selected molecules
// return numeric value only (unit: %, not printed)

Some entries whose results are on file:
C[C@]1(Cn2ccnn2)[C@H](C(=O)O)N2C(=O)C[C@H]2S1(=O)=O
6.33
CO[C@H]1/C=C/O[C@@]2(C)Oc3c(C)c(O)c4c(c3C2=O)C2=NC3(CCN(CC(C)C)CC3)NC2=C(NC(=O)/C(C)=C\C=C\[C@H](C)[C@H](O)[C@@H](C)[C@@H](O)[C@@H](C)[C@H](OC(C)=O)[C@@H]1C)C4=O
20
O=C(N[C@H](CO)[C@H](O)c1ccc([N+](=O)[O-])cc1)C(Cl)Cl
5
Cc1ccc(S(=O)(=O)NC(=O)NN2CC3CCCC3C2)cc1 (configuration not stated) [GLICLAZIDE]
12.33
CNC(=C[N+](=O)[O-])NCCSCc1ccc(CN(C)C)o1
7
Cc1cc(=O)n(-c2ccccc2)n1C [ANTIPYRINE]
7.67

Shift focus to the following entry.
INPUT: What NEUTROPHIL value was documented for this molecule, NC(=O)c1cnccn1 [PYRAZINAMIDE] ?
OUTPUT: 10.33

* * *

Species: Rattus norvegicus
test name: DrugMatrix - Regimen: Daily Repeat
Type: toxicity, organism-based, Sprague-Dawley
Parameters: regimen Daily Repeat, gender Male, age 6-8 weeks
conditions: in vivo, po, 0 mg/kg, 72 h, tissue Plasma, route oral GAVAGE, dose level Control, time 3 day, […]
Listing: CHOLESTEROL of selected molecules
// return numeric value only (unit: mg/dL, not printed)

Some entries whose results are on file:
COCCOC(=O)C1=C(C)NC(C)=C(C(=O)OC(C)C)C1c1cccc([N+](=O)[O-])c1 (configuration not stated)
75.17
COc1ccc2[nH]c([S+]([O-])Cc3ncc(C)c(OC)c3C)nc2c1 (configuration not stated)
75
CCOC(=O)C(C)(C)Oc1ccc(Cl)cc1 [CLOFIBRATE]
64.5
S=C=Nc1cccc2ccccc12 [1-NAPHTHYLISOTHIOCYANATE]
66.33
CCOC(=O)C1=C(C)NC(C)=C(C(=O)OC)C1c1cccc([N+](=O)[O-])c1 (configuration not stated)
75.17

INPUT: What CHOLESTEROL value was documented for this molecule, C[C@]12CC[C@@H]3c4ccc(O)cc4CC[C@H]3[C@@H]1CC[C@@H]2O ?
OUTPUT: 82.5

INPUT: What CHOLESTEROL value was documented for this molecule, CC(C)Cc1ccc(C(C)C(=O)O)cc1 (configuration not stated) ?
OUTPUT: 75.67
